Study Target: BCL6 (Homo sapiens (Human), UniProt P41182)
Method Notes: BCL6 TR-FRET assay (BCL6-Avitag-Biotin / BCoR-Cy5 peptide)
Type: binding
Protocol Conditions: read-out: IC50
pIC50: −log10 of the molar value.
Reported Property: pIC50

// known answers, use as guide
>  <Molecule>
CNC(=O)COc1cc2cc(Nc3nc(N4CCC5(CCN(CC6CCN(c7cccc8c7C(=O)N(C7CCC(=O)NC7=O)C8=O)CC6)CC5)C4)ncc3Cl)ccc2n(C(C)C)c1=O (stereo not drawn) [compound 513]

>  <Assay Value>
> 8.00

$$$$
>  <Molecule>
CNC(=O)COc1cc2cc(Nc3nc(N4CCC(O[C@H]5C[C@@H](COc6ccc7c(c6)C(=O)N(C6CCC(=O)NC6=O)C7=O)N(C)C5)CC4)ncc3Cl)ccc2n(C(C)C)c1=O (stereo partly drawn) [compound 456]

>  <Assay Value>
≤ 7.00

$$$$
>  <Molecule>
CNC(=O)COc1cc2cc(Nc3nc(N4CCC(C5(N6CCC(c7cc(OC)cc(C(=O)NC8CCC(=O)NC8=O)c7F)CC6)CC5)CC4)ncc3Cl)ccc2n(C)c1=O (stereo not drawn) [compound 480]

>  <Assay Value>
7.30 to 8.00

$$$$
>  <Molecule>
CNC(=O)COc1cc2cc(Nc3nc(N4CCC(O[C@H]5C[C@H](Oc6ccc7c(c6)C(=O)N(C6CCC(=O)NC6=O)C7=O)CN(C)C5)CC4)ncc3Cl)ccc2n(C(C)C)c1=O (stereo partly drawn) [compound 459]

>  <Assay Value>
≤ 7.00

$$$$
>  <Molecule>
CNC(=O)COc1cc2cc(Nc3nc(N4CCC(CN5CCC6(CC5)CCN(c5cccc7c5C(=O)N(C5CCC(=O)NC5=O)C7=O)C6)CC4)ncc3Cl)ccc2n(C(C)C)c1=O (stereo not drawn) [compound 512]

>  <Assay Value>
> 8.00

$$$$
>  <Molecule>
CNC(=O)COc1cc2cc(Nc3nc(N4CCN(CC5CCN(c6cc(OC)cc(C(=O)NC7CCC(=O)NC7=O)c6F)CC5)CC4)ncc3Cl)ccc2n(C(C)C)c1=O (stereo not drawn) [compound 473]

>  <Assay Value>
> 8.00

$$$$

Please look at the items below and tell me pIC50 for each one, in order.
1. CNC(=O)COc1cc2cc(Nc3nc(N4CCC5(CCN(CC6CCN(c7ccc8c(c7)C(=O)N(C7CCC(=O)NC7=O)C8=O)CC6)CC5)C4)ncc3Cl)ccc2n(C(C)C)c1=O (stereo not drawn) [compound 490]
2. CNC(=O)COc1cc2cc(Nc3nc(N4CCC(O[C@H]5C[C@H](N6CCC(c7ccc8c(c7)C(=O)N(C7CCC(=O)NC7=O)C8=O)CC6)C5)CC4)ncc3Cl)ccc2n(C)c1=O (stereo partly drawn) [compound 536]
3. CNC(=O)COc1cc2cc(Nc3nc(N4CCC(C5(N6CCC(c7ccc8c(c7)C(=O)N(C7CCC(=O)NC7=O)C8=O)CC6)CC5)CC4)ncc3Cl)ccc2n(C(C)C)c1=O (stereo not drawn) [compound 488]
4. CNC(=O)COc1cc2cc(Nc3nc(N(C)C)ncc3Cl)ccc2n(CCOc2ccc3c(c2)C(=O)N(C2CCC(=O)NC2=O)C3=O)c1=O (stereo not drawn) [compound 470]
5. CNC(=O)COc1cc2cc(Nc3nc(N4CCC(O[C@H]5C[C@@H](COc6cccc7c6C(=O)N(C6CCC(=O)NC6=O)C7=O)N(C)C5)CC4)ncc3Cl)ccc2n(C(C)C)c1=O (stereo partly drawn) [compound 476]
6. CNC(=O)COc1cc2cc(Nc3nc(N4CCC(O[C@H]5C[C@H](N6CCN(c7cccc8c7C(=O)N(C7CCC(=O)NC7=O)C8=O)CC6)C5)CC4)ncc3Cl)ccc2n(C(C)C)c1=O (stereo partly drawn) [compound 518]

Key:
1: > 8.00; 2: > 8.00; 3: > 8.00; 4: 7.30 to 8.00; 5: 7.30 to 8.00; 6: 7.30 to 8.00

Please look at the items below and tell me pIC50 for each one, in order.
1. CNC(=O)COc1cc2cc(Nc3nc(N4CCC5(CCN(CC6CCN(c7cccc8c7C(=O)N(C7CCC(=O)NC7=O)C8=O)CC6)C5)CC4)ncc3Cl)ccc2n(C(C)C)c1=O (stereo not drawn) [compound 508]
2. CNC(=O)COc1cc2cc(Nc3nc(N4CCN(CC5CCN(c6cccc7c6C(=O)N(C6CCC(=O)NC6=O)C7=O)CC5)CC4)ncc3Cl)ccc2n(CCC2COC2)c1=O (stereo not drawn) [compound 503]
3. CNC(=O)COc1cc2cc(Nc3nc(N4CCC5(CC4)CCN(C4CCN(c6cccc7c6C(=O)N(C6CCC(=O)NC6=O)C7=O)CC4)C5)ncc3Cl)ccc2n(C(C)C)c1=O (stereo not drawn) [compound 520]

Key:
["> 8.00", "> 8.00", "> 8.00"]

====

For each of the compounds below, state its IC50.
Study Target: BCL6 (Homo sapiens (Human), UniProt P41182)
Method Notes: Immunofluorescence high content imaging of BCL6 degradation in T47D cells
Format: cell-based
Protocol Conditions: T47D cells
Experimental: Immunofluorescence Protocol for High Cotent Imaging of BCL6 T47D cells were seeded in 100 μl volume of RPMI1640-10% FBS in a 96-well black/clear bottom plates for adherent lines (Corning #3904). Day 1. T47D breast cancer epithelial cells were seeded at a density so that confluence is ˜70-90% at endpoint. Cells were seeded at 7K/0.1 ml/well the morning prior to the addition of exemplary bifunctional degradation compounds. Day 2. […] Plates were equilibrated to room temperature prior to reading. […]

// known answers, use as guide
>  <Compound>
CNC(=O)COc1cc2cc(Nc3nc(N4CCC(CN5[C@H](C)CN(c6cccc(C(=O)NC7CCC(=O)NC7=O)c6F)C[C@@H]5C)CC4)ncc3Cl)ccc2n(C)c1=O (mixture of isomers)

>  <Assay Value>
10 to 50 nM

$$$$
>  <Compound>
CNC(=O)COc1cc2cc(Nc3nc(N4CCC(CN5CCC(c6ccc(N7CCC(=O)NC7=O)c(OC)c6)CC5)CC4)ncc3Cl)ccc2n(C(C)C)c1=O

>  <Assay Value>
≥ 100 nM

$$$$
>  <Compound>
CCCC(C1CCN(c2ccc3c(c2)C(=O)N(C2CCC(=O)NC2=O)C3=O)CC1)N1CCN(c2ncc(Cl)c(Nc3ccc4c(c3)cc(OCC(=O)NC)c(=O)n4C)n2)CC1 (stereo not drawn)

>  <Assay Value>
< 10 nM

$$$$

Please look at the items below and tell me IC50 for each one, in order.
1. CNC(=O)COc1cc2cc(Nc3nc(N4CCC5(CC4)CN(CC4CCN(c6cccc7c6CN(C6CCC(=O)NC6=O)C7=O)CC4)C5)ncc3Cl)ccc2n(C(C)C)c1=O (stereo not drawn)
2. CNC(=O)COc1cc2cc(Nc3nc(N4CCN(C(C)(C)C5CCN(c6cc(OC)cc(C(=O)NC7CCC(=O)NC7=O)c6F)CC5)CC4)ncc3Cl)ccc2n(C)c1=O (stereo not drawn)
3. CNC(=O)COc1cc2cc(Nc3nc(N4CCN(CCC5CCN(c6ccc7c(c6)C(=O)N(C6CCC(=O)NC6=O)C7=O)CC5)CC4)ncc3Cl)ccc2n(C)c1=O (stereo not drawn)
4. CNC(=O)COc1cc2cc(Nc3nc(N4CCC(F)(CN5CCN(c6ccc(C(=O)NC7CCC(=O)NC7=O)c(OC)c6)CC5)CC4)ncc3Cl)ccc2n(C)c1=O (stereo not drawn)
5. CNC(=O)COc1cc2cc(Nc3nc(N4CCC(CN5CCC(c6ccc7c(c6)C(=O)N(C6CCC(=O)NC6=O)C7=O)CC5)CC4)ncc3Cl)ccc2n(C(C)C)c1=O (stereo not drawn)

Key:
< 10 nM
< 10 nM
10 to 50 nM
< 10 nM
< 10 nM

Please look at the items below and tell me IC50 for each one, in order.
1. CNC(=O)COc1cc2cc(Nc3nc(N4C[C@@H](C)N(CC5CCN(c6cccc7c6C(=O)N(C6CCC(=O)NC6=O)C7=O)CC5)[C@@H](C)C4)ncc3Cl)ccc2n(C(C)C)c1=O (stereo partly drawn)
2. CCn1c(=O)c(OCC(=O)NC)cc2cc(Nc3nc(N4CCC(COC5CCN(c6cccc7c6C(=O)N(C6CCC(=O)NC6=O)C7=O)CC5)CC4)ncc3Cl)ccc21 (stereo not drawn)

Key:
< 10 nM
< 10 nM

Please look at the items below and tell me IC50 for each one, in order.
1. CNC(=O)COc1cc2cc(Nc3nc(N4CCC(OC5CC6(C5)CN(c5ccc7c(c5)CN(C5CCC(=O)NC5=O)C7=O)C6)CC4)ncc3Cl)ccc2n(C(C)C)c1=O (stereo not drawn)
2. CNC(=O)COc1cc2cc(Nc3nc(N4CCC5(CC4)CC(OC4CCN(c6cccc7c6CN(C6CCC(=O)NC6=O)C7=O)CC4)C5)ncc3Cl)ccc2n(C(C)C)c1=O (stereo not drawn)
3. CNC(=O)COc1cc2cc(Nc3nc(N4C[C@@H](C)N(CC5CCN(c6ccc(C(=O)NC7CCC(=O)NC7=O)c(OC)c6)CC5)[C@@H](C)C4)ncc3Cl)ccc2n(C)c1=O (stereo partly drawn)
4. CNC(=O)COc1cc2cc(Nc3nc(N4CCN(C(C)(C)C5CCN(c6cccc(C(=O)NC7CCC(=O)NC7=O)[n+]6[O-])CC5)CC4)ncc3Cl)ccc2n(C)c1=O (stereo not drawn)
5. CNC(=O)COc1cc2cc(Nc3nc(N4CCN(CC5CCC6(CC5)CN(c5ccc(OC)c7c5C(=O)N(C5CCC(=O)NC5=O)C7=O)C6)CC4)ncc3Cl)ccc2n(C(C)C)c1=O (stereo not drawn)
6. CNC(=O)COc1cc2cc(Nc3nc(N4CCC(CN5CCC6(CC5)CN(c5cccc(C(=O)NC7CCC(=O)NC7=O)c5OC)C6)CC4)ncc3Cl)ccc2n(C(C)C)c1=O (stereo not drawn)
7. CNC(=O)COc1cc2cc(Nc3nc(N4CCC(OC5CC6(CCN(c7ccc8c(c7)CN(C7CCC(=O)NC7=O)C8=O)CC6)C5)CC4)ncc3Cl)ccc2n(C(C)C)c1=O (stereo not drawn)

Key:
1: < 10 nM; 2: < 10 nM; 3: < 10 nM; 4: 10 to 50 nM; 5: < 10 nM; 6: 50 to 100 nM; 7: < 10 nM

Where do these numbers come from? They come from patent US12310975B2.
